# MEASUREMENT_TARGET: T1, human MSR1 extracellular domain expressed with a N-terminal nonahistidine tag (His9-hMSR1); R&D Systems, Cat … (human, UniProt P21757 77-451)
# T1 construct: extracellular domain; Bought reagent; also called His-hMSR1; 9xHis-hMSR1
# T1 sequence: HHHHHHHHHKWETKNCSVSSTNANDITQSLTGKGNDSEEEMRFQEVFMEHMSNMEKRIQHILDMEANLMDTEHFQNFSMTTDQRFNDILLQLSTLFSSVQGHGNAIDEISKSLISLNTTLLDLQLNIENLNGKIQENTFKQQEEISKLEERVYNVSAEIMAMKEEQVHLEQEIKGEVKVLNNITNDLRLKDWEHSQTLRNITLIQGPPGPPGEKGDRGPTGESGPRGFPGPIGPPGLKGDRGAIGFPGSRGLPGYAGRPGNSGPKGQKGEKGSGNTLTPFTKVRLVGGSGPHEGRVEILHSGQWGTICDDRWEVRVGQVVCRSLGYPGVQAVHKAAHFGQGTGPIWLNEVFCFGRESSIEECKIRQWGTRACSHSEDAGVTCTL
# ASSAY_INFO: SPR Biacore T200, 25 C, antibody captured by anti-human Fc, His9-hMSR1 injected;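 further: running buffer HBS-ET pH 7.4, rates from sensorgrams fitted to a 1:1 model including mass transport limitation, KD and half-life derived from the kinetic constants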
ASSAY_ENDPOINT: Kd

Reference set (4 entries):
H1H27747P-N297Q-LP1 (antibody, human IgG1, V domains shown, LXR agonist linker-payload LP1 clicked to azido-PEG3-amine on Q295 and Q297 (EU) of the heavy chain constant region, antibody-drug conjugate; human IgG1 Fc with N297Q (EU); also called H1H27747P-LP1) VH: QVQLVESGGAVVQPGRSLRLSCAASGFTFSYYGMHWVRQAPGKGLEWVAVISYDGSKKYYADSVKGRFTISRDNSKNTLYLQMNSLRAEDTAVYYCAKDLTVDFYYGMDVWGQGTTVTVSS VL: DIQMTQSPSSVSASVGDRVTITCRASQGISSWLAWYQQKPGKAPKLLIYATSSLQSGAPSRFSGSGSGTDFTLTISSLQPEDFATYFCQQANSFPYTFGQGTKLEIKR = 1.49 nM
H1H27731P-N297Q (antibody, V domains shown, human IgG1 Fc with N297Q (EU)) VH: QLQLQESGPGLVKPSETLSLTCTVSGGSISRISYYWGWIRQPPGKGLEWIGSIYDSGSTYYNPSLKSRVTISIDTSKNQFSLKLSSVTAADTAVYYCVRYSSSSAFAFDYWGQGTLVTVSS VL: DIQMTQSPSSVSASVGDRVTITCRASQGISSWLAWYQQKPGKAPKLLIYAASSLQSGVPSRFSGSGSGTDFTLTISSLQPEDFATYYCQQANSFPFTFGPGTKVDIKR = ≤ 0.0855 nM
H1H27734P-N297Q-LP1 (antibody, human IgG1, V domains shown, LXR agonist linker-payload LP1 clicked to azido-PEG3-amine on Q295 and Q297 (EU) of the heavy chain constant region, antibody-drug conjugate; human IgG1 Fc with N297Q (EU); also called H1H27734P-LP1) VH: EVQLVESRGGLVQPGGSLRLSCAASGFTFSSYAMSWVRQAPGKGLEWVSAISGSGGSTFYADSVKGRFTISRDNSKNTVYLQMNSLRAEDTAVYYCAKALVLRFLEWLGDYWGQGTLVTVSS VL: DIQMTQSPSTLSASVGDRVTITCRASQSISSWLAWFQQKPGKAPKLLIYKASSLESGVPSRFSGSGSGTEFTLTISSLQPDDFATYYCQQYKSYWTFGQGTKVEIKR = 6.49 nM
H1H27734P-N297Q (antibody, human IgG1, V domains shown, human IgG1 Fc with N297Q (EU)) VH: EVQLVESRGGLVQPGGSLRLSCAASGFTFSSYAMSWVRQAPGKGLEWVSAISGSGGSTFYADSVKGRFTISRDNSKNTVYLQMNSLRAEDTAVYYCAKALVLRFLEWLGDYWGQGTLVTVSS VL: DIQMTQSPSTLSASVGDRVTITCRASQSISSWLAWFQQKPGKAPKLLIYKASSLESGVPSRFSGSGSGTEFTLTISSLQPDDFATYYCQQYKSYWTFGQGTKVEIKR = 7.72 nM

Query block: Given H1H27729P-N297Q (antibody, human IgG1, V domains shown, human IgG1 Fc with N297Q (EU)) VH: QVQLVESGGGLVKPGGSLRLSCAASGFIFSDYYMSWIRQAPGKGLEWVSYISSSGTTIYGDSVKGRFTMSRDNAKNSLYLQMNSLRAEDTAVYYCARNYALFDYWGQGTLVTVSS VL: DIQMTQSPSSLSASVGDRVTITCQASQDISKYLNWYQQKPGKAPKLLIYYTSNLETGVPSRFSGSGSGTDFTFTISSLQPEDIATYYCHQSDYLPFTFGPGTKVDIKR , respond with its Kd.
Result block: 8.67 nM
